target: Formyl peptide receptor 1 (FPR1) (Homo sapiens); construct: human neutrophils; also hFPR1 (NM_002029)-transfected HEK-293 and differentiated THP-1 cells; test: displacement of fluorescent FPR1 ligand fNLFNYK on intact cells, flow cytometry
Sequence (P21462 whole entry): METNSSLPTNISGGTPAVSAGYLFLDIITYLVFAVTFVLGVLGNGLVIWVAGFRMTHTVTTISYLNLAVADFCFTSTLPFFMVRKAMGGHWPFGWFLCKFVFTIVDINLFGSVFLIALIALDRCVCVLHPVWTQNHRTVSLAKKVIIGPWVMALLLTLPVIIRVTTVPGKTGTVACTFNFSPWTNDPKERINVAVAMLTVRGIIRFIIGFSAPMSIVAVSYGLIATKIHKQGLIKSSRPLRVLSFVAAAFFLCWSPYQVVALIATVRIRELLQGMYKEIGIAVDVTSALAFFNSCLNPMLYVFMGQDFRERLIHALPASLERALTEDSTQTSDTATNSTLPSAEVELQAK
MEASURE NAME: IC50 (µM)
Output spec: scalar in µM, unitless text.

Short answer for C=CCc1ccc(O)c(-c2ccc(O)c(CC=C)c2)c1 [H, Honokiol] : IC50 was 7.44
